measured on: EGFR Del19/C797S (Homo sapiens, UniProt P00533, C797S/DEL746-750)
Sequence (P00533 with tags, fused parts or gaps DEL746-750/C797S): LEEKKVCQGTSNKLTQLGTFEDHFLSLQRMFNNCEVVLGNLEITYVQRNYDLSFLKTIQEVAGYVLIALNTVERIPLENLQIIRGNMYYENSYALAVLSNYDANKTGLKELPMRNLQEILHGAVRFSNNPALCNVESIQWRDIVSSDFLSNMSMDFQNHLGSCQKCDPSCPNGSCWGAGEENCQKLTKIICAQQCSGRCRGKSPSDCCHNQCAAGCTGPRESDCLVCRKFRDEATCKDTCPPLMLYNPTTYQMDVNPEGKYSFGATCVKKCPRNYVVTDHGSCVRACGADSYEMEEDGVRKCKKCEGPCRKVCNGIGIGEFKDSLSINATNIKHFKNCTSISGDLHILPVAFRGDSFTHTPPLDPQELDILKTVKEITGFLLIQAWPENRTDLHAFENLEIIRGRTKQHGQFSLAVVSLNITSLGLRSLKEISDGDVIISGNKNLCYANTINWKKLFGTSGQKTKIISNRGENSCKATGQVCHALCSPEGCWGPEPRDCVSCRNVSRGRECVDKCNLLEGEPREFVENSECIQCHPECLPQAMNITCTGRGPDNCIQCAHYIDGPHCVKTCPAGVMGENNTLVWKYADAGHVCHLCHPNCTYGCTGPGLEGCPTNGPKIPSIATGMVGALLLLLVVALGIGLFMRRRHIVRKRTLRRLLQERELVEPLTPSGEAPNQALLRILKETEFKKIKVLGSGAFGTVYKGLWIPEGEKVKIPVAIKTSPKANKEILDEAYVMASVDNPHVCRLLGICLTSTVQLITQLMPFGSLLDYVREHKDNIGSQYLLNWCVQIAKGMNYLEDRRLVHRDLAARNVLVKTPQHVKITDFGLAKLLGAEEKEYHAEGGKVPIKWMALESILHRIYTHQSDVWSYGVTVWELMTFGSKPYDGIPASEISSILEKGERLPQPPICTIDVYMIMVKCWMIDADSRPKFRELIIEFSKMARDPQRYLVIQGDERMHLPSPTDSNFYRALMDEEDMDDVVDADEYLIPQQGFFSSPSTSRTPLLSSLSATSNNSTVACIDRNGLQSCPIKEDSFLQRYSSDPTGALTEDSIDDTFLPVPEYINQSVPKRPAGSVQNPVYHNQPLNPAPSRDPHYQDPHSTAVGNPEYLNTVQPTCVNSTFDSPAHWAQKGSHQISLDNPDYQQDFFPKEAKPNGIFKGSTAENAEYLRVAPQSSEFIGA
experiment description: Biochemical EGFR kinase inhibition assay (Lance Ultra TR-FRET), double mutant del19/C797S
study conditions: Km ATP; read-out: IC50 Del19/C797S (nM), Km ATP
Recorded IC50 by entry

smiles input: C[C@]1(O)CCCN(c2cc(Nc3ccnc(-c4cnn(S(=O)(=O)C5CC5)c4)n3)ncc2C#Cc2cnn(C(F)(F)F)c2)C1
endpoint unit: nM
IC50: 27.7
//
smiles input: CC1(CO)CCN(c2cc(Nc3ccnc(-c4cnn(S(=O)(=O)C5CC5)c4)n3)ncc2C#CC2(O)COC2)CC1
endpoint unit: nM
IC50: 0.3
//
smiles input: CC1(CO)CCN(c2cc(Nc3ccnc(-c4cnn(S(=O)(=O)C5CC5)c4)n3)ncc2C#Cc2cnn(CC(F)(F)F)c2)CC1
endpoint unit: nM
IC50: 4.7
